testName: Cytotoxicity against human HeLa cells expressing YFP parkin treated with FCCP/ oligomycin assessed as highest safety dose by DAPI staining analysis
Format: toxicity, cell-based
experimentalConditions: read-out: Activity
Provide the reported MNTC of each item.
Give the value, in units of µM, as a plain number.

Prompt: Endpoint output: MNTC of `C[C@@H]1CN([C@H]2COc3cc(F)ccc3[C@@H]2Nc2ncnc3[nH]c(C4CC4)cc23)CCO1` . Value?
Response: 2

Prompt: Now try C[C@@H]1CN([C@H]2CCc3ccccc3[C@@H]2Nc2ncnc3[nH]c(C4CC4)cc23)CCO1 (single isomer, unassigned) .
Response: 1.3

Prompt: Now try `C[C@H]1CN([C@@H]2COc3ccccc3[C@H]2Nc2ncnc3[nH]c(C(F)(F)F)cc23)CCO1` .
Response: 19.4

Prompt: Now try Fc1ccc2c(c1)CC[C@@H](N1CCOCC1)[C@@H]2Nc1ncnc2[nH]c(C(F)(F)F)cc12 (single isomer, unassigned) .
Response: 25

Prompt: Now try `COC1CN([C@@H]2COc3ccccc3[C@H]2Nc2ncnc3[nH]c(C4CC4)cc23)C1` .
Response: 25

Prompt: Now try `Fc1ccc2c(c1)CC[C@H](N1C[C@H]3COC[C@@H]3C1)[C@H]2Nc1ncnc2[nH]c(C3CC3)cc12` .
Response: 11.7

Prompt: Now try `COC1CN([C@@H]2COc3ccccc3[C@H]2Nc2ncnc3[nH]c(C(F)(F)F)cc23)C1` .
Response: 21.4
